procedure summary: Binding affinity to bacterial CspB assessed as dissociation constant by MST assay
Parameters: species or system Bacteria
readout name: Kd (µM)
Quick reminder: number only, in µM, skip the unit.

record smiles	Kd (µM)
Oc1ccc(-c2nc(-c3ccc(OC4CCCC4)cc3)no2)cc1	75

The reported value for Cl.NCc1ccc(-c2nc(-c3ccnc(Oc4ccc(C(F)(F)F)cc4)c3)no2)cc1 in terms of Kd is 8

----------
Here, each record is paired with measured inhibition at 45 µM data.
Tested on: Clostridioides difficile
procedure summary: Antibacterial activity against Clostridium difficile ATTC43255 assessed as spore germination inhibition at 45 uM incubated for 60 mins by spectrometry relative to control
Format: functional
measurement parameters: ATTC43255, 1 h

Worked examples, 5 compounds total:
record smiles	readout name	data value
FC(F)(F)c1ccc(Oc2ccc(-c3noc(-c4cn[nH]c4)n3)cc2)cc1	inhibition at 45 µM	< 10%
Oc1ccc(-c2nc(-c3ccc(Oc4ccc(C(F)(F)F)cc4)cc3)no2)cc1F	inhibition at 45 µM	14%
CCCOc1ccc(-c2noc(-c3ccc(O)cc3)n2)cc1	inhibition at 45 µM	< 10%
CC(C)(C)OC(=O)NCc1ccc(-c2nc(-c3ccc(Oc4ccc(C(F)(F)F)cc4)cc3)no2)cc1	inhibition at 45 µM	< 10%
Oc1ccc(-c2nc(-c3ccc(Oc4ccc(I)cc4)cc3)no2)cc1	inhibition at 45 µM	39%

inhibition at 45 µM reading for Oc1ccc(-c2nc(-c3ccc(OC(F)(F)F)cc3)no2)cc1 : < 10%

# inhibition at 45 µM (compound: Oc1ccc(-c2nc(-c3ccc(N4CCOCC4)cc3)no2)cc1 ) is < 10%

Lookup result for O=[N+]([O-])c1c[nH]c(-c2nc(-c3ccc(OC4CCCC4)cc3)no2)n1 ; measured inhibition at 45 µM: < 10%

Record CC(C)(C)Oc1ccc(-c2noc(-c3ccc(O)cc3)n2)cc1 . Reported inhibition at 45 µM: < 10%

Form field inhibition at 45 µM, entry Oc1ccc(-c2nc(-c3ccc(Oc4ccc(C(F)(F)F)cc4)cc3)no2)cn1 : < 10%
